Assay: Pharmacokinetics of oral DAS in rats with or without APG pretreatment (UPLC-MS/MS, non-compartmental)
Assay type: in vivo
Settings: male, Wistar, po; DAS in rat plasma; DAS 25 mg/kg p.o., alone or after APG 40 mg/kg p.o. for 7 days; mean ± SD
RESULT TYPE: Tmax (h)
# number only, unit h dropped from output

*Q* If you can, please state the reported Tmax value of Cc1nc(Nc2ncc(C(=O)Nc3c(C)cccc3Cl)s2)cc(N2CCN(CCO)CC2)n1 .
*A* 1

---

Assay: Pharmacokinetics of oral DAS in rats with or without APG pretreatment (UPLC-MS/MS, non-compartmental)
Type: in vivo
Conditions: male, Wistar, po; DAS in rat plasma; DAS 25 mg/kg p.o., alone or after APG 40 mg/kg p.o. for 7 days; mean ± SD; read-out: AUC0-inf_obs
RESULT TYPE: AUC(0-inf) (ng·h/mL)
State just the number; it will be interpreted in ng·h/mL.

*Q* Item under review: Cc1nc(Nc2ncc(C(=O)Nc3c(C)cccc3Cl)s2)cc(N2CCN(CCO)CC2)n1 . Reported AUC(0-inf)?
*A* 2060

---

Assay: Pharmacokinetics of oral DAS in rats with or without APG pretreatment (UPLC-MS/MS, non-compartmental)
Type: in vivo
Settings: male, Wistar, po; DAS in rat plasma; DAS 25 mg/kg p.o., alone or after APG 40 mg/kg p.o. for 7 days; mean ± SD; read-out: MRT 0-inf_obs
Procedure: The Central Animal House facility of College of Pharmacy, King Saud University’s, Riyadh, Saudi Arabia, provided 24 healthy adult male Wistar rats (weighing 211–223 g), and the experiment was authorized by the Animal Ethics Committee of the College of Pharmacy, King Saud University (KSU-SE-21-58). […] Using UHPLC-MS/MS, DAS concentrations in rat plasma samples were determined. […]
RESULT TYPE: MRT inf (h)
Kindly provide the numeric value in h only, without the unit symbol.

*Q* Could you tell me which MRT inf is on file for Cc1nc(Nc2ncc(C(=O)Nc3c(C)cccc3Cl)s2)cc(N2CCN(CCO)CC2)n1 [DAS, Dasatinib] ?
*A* 7.84

---

Experiment: Pharmacokinetics of oral DAS in rats with or without APG pretreatment (UPLC-MS/MS, non-compartmental)
Assay type: in vivo
Conditions: male, Wistar, po; DAS in rat plasma; DAS 25 mg/kg p.o., alone or after APG 40 mg/kg p.o. for 7 days; mean ± SD
RESULT TYPE: k el
Put your answer as a value accompanied by its unit after it.

*Q* Record request: k el value, item Cc1nc(Nc2ncc(C(=O)Nc3c(C)cccc3Cl)s2)cc(N2CCN(CCO)CC2)n1 [DAS, Dasatinib]
*A* 3.89e-05 s⁻¹

---

Experiment: Pharmacokinetics of oral DAS in rats with or without APG pretreatment (UPLC-MS/MS, non-compartmental)
Assay type: in vivo
Conditions: male, Wistar, po; DAS in rat plasma; DAS 25 mg/kg p.o., alone or after APG 40 mg/kg p.o. for 7 days; mean ± SD
RESULT TYPE: half-life (h)
Express your answer in h, writing the number without its unit.

*Q* For the compound shown here, Cc1nc(Nc2ncc(C(=O)Nc3c(C)cccc3Cl)s2)cc(N2CCN(CCO)CC2)n1 , give the reported half-life.
*A* 4.97
